Can you tell me Max % Inhibition (133.3 nM), n = 2, IGF-II pTYR, BxPC3 cells for the items I'm about to list?
# Tested On: human insulin-like growth factor-II (IGF-II) (human, UniProt P01344 25-91)
# Experiment Notes: cell-based or functional assay
Quick note: give the figure in %, leave out the unit.

Entry mAb 7.34.1 (antibody, V domains shown, Fully human XenoMouse hybridoma mAb, lambda light chain (V1-13/JL2); also called ATCC PTA-7423) VH: QVQLQESGPGLVKPSETLSLTCTVSGGSISSYYWSWIRQPPGRGLEWIGYFFYSGYTNYNPSLKSRVTMSVDTSKNQFSLKLSSVTAADTAVYYCACITGTTKGGMDVWGQGATVTVSS VL: QSVLTQAPSVSGAPGQRVTISCTGRSSNIGAGYDVHWYQQFPGTAPKLLIYGNSNRPSGVPDRFSGSKSGTSASLAITGLQAEDEADYYCQSYDSSLSGSVFGGGTKLTVLG — recorded Max % Inhibition (133.3 nM), n = 2, IGF-II pTYR, BxPC3 cells = 89.7

Entry mAb 7.234.2 (antibody, V domains shown, Kappa light chain (L5/JK3); also called 7.234.1; 7_234_1) VH: QLQLQESGPGLVKPSETLSLTCTVSGGSINSSSNYWGWIRQPPGKGLAWIGGIYYSGSTYYNPSLRSRVTMSVDTSKNQFSLKLSSVTAADTAVYYCARQRGHSSGWWYFDLWGRGTLVTVSS VL: DIQMTQSPSSVSASVGDRVTITCRASRGISSWLAWYQQRPGKAPKLLIYTASSLQSGVPSRFSGSGSGTDFTLTISSLQPEDFATYYCQQANSFPFTFGPGTKVDIKR — recorded Max % Inhibition (133.3 nM), n = 2, IGF-II pTYR, BxPC3 cells = 77.3
